protocol details: Biliary excretion pharmacokinetics of Rho-123 after RT in freely moving rats
Format: in vivo, Sprague-Dawley rats
test conditions: Sprague-Dawley, rat, bile, iv, 0.2 mg/kg, biliary excretion, RT2Gy, Rho-123 10 min later (concurrent)
readout label: Cmax

Ask | Using known records, supply Cmax for "COC(=O)c1ccccc1-c1c2ccc(=N)cc-2oc2cc(N)ccc12"
Reply | 3560 ng/mL

----------
protocol details: Biliary excretion pharmacokinetics of Rho-123 after RT in freely moving rats
Format: in vivo, Sprague-Dawley rats
test conditions: Sprague-Dawley, rat, bile, iv, 0.2 mg/kg, biliary excretion, RT2Gy, Rho-123 10 min later (concurrent)
readout label: MRT
Respond with a number, then the unit of measure.

Ask | Indicate its recorded MRT; the compound in question is COC(=O)c1ccccc1-c1c2ccc(=N)cc-2oc2cc(N)ccc12 [Rho-123, rhodamine 123]
Reply | 1.1 h

These measurements were taken from paper PMC7293270.
